details: human, serum;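 also: human clinical chemistry: moderate when serum ALT or AST reaches 6× upper normal limit or alkaline phosphatase 1.7×, value counts indexed literature references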
Label key: yes means Hepatotoxicity (moderate) under 1; no means Hepatotoxicity (moderate) of 1 or more.

// below: answered compounds
[
  {
    "compound": "CC(=O)OCC(=O)NCCCOc1cccc(CN2CCCCC2)c1 [ROXATIDINE ACETATE]",
    "classification": "no"
  },
  {
    "compound": "CNC(=O)C[C@@H](N)C(=O)N[C@@H](C(=O)N[C@@H]1C(=O)N2[C@@H]1SC(C)(C)[C@@H]2C(=O)O)c1ccc(O)cc1",
    "classification": "no"
  },
  {
    "compound": "CC(=O)O[C@@]12CO[C@@H]1C[C@H](O)[C@@]1(C)C(=O)[C@H](O)C3=C(C)[C@@H](OC(=O)[C@H](O)[C@@H](NC(=O)OC(C)(C)C)c4ccccc4)C[C@@](O)([C@@H](OC(=O)c4ccccc4)[C@H]21)C3(C)C.O.O.O",
    "classification": "no"
  },
  {
    "compound": "NN [HYDRAZINE]",
    "classification": "yes"
  },
  {
    "compound": "CC(C)Cc1ccc(CC(=O)O)cc1",
    "classification": "no"
  },
  {
    "compound": "COc1cccc2c1C(=O)c1c(O)c3c(c(O)c1C2=O)C[C@@](O)(C(C)=O)C[C@@H]3O[C@H]1C[C@H](N)[C@H](O)[C@H](C)O1",
    "classification": "no"
  },
  {
    "compound": "C[C@H](C(=O)O)c1ccc2oc(-c3ccc(F)cc3)nc2c1",
    "classification": "no"
  },
  {
    "compound": "Cc1oc(=O)oc1COC(=O)[C@@H]1N2C(=O)[C@@H](NC(=O)[C@H](N)c3ccccc3)[C@H]2SC1(C)C",
    "classification": "no"
  },
  {
    "compound": "C[C@H]1COc2c(N3CCN(C)CC3)c(F)cc3c(=O)c(C(=O)O)cn1c23.C[C@H]1COc2c(N3CCN(C)CC3)c(F)cc3c(=O)c(C(=O)O)cn1c23.O",
    "classification": "no"
  },
  {
    "compound": "COCC1=C(C(=O)OC(C)OC(=O)OC(C)C)N2C(=O)[C@@H](NC(=O)/C(=N\\OC)c3csc(N)n3)[C@H]2SC1 (some centres undefined)",
    "classification": "no"
  }
]

Record CCOC(=O)C1=C(COCCN)NC(C)=C(C(=O)OC)C1c1ccccc1Cl (centres undefined) : is its Hepatotoxicity (moderate) strictly below 1?
no

And the next one, Cc1onc(-c2ccccc2)c1C(=O)N[C@@H]1C(=O)N2[C@@H]1SC(C)(C)[C@@H]2C(=O)O ?
no

And the next one, O=C(O)[C@@H](S)[C@@H](S)C(=O)O ?
no

And the next one, CN1CCC(=C2c3ccccc3C=Cc3ccccc32)CC1 ?
yes

And the next one, CCN(CC)Cc1cc(Nc2ccnc3cc(Cl)ccc23)ccc1O.Cl ?
no

And the next one, Cc1ncc(CNC(=O)N(CCCl)N=O)c(N)n1 ?
no
